Taken from paper PMC12430544.

tested-system: Aβ1–42 (Homo sapiens, UniProt P05067)
Construct: aggregation of Aβ1–42 synthetic peptide into fibrils
Sequence (P05067 672-713): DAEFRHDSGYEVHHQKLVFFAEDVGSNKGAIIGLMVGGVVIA
assay: Inhibition of self-induced Aβ1–42 aggregation (ThT fluorescence)
Type: biochemical
condition-details: 20 μM compound, thioflavin-T fluorescence, mean ± SD of at least three independent experiments; read-out: Aβ Aggregation Inhibition (%), self-induced Aβ1–42
Method: Self-induced Aβ1–42 aggregation of all the compounds we obtained was also evaluated. […] ThT is a histochemical dye that is known to bind to the peptide β-sheet conformation, which is the predominant secondary structure of amyloid-beta fibrils. […] The inhibition studies were carried out upon incubating Aβ1–42 with and without the compounds. […]
Could you label it y if measured inhibition at 20 µM is 90% or higher, and n otherwise?

{"compound": "Cc1ccc2c(CN3CCN(CC(=O)Nc4c5c(nc6ccccc46)CCCC5)CC3)ccc(O)c2n1 [Compound 17b]", "class-label": "n"}
{"compound": "O=C(CN1CCN(Cc2ccc3c(Cl)cc(Cl)c(O)c3n2)CC1)Nc1c2c(nc3ccccc13)CCCC2 [Compound 15e]", "class-label": "n"}
{"compound": "Nc1cccc2ccc(CN3CCN(CCCNc4c5c(nc6ccccc46)CCCC5)CC3)nc12 [Compound 16g]", "class-label": "y"}
{"compound": "COc1cc(/C=C/C(=O)CC(=O)/C=C/c2ccc(O)c(OC)c2)ccc1O [curcumin, reference compound]", "class-label": "n"}
{"compound": "Oc1cccc2ccc(CN3CCN(CCCCCNc4c5c(nc6ccccc46)CCCC5)CC3)nc12 [Compound 16h]", "class-label": "y"}
{"compound": "Oc1cccc2ccc(CN3CCN(CCNc4c5c(nc6ccccc46)CCCC5)CC3)nc12 [Compound 16a]", "class-label": "n"}
{"compound": "Oc1ccc(F)c2ccc(CN3CCN(CCCCCNc4c5c(nc6ccccc46)CCCC5)CC3)nc12 [Compound 16i]", "class-label": "n"}
{"compound": "O=C(CN1CCN(Cc2ccc(O)c3ncccc23)CC1)Nc1c2c(nc3ccccc13)CCCC2 [Compound 17a]", "class-label": "n"}
{"compound": "Nc1cccc2ccc(CN3CCN(CCCCCNc4c5c(nc6ccccc46)CCCC5)CC3)nc12 [Compound 16k]", "class-label": "n"}
